Hello, the source for this data is ChEMBL document CHEMBL6153043, in case you need it.

PROTOCOL_NOTES: Selectivity index, ratio of CC50 for African green monkey Vero cells to EC50 for anti-schistosomal activity against female Schistosoma mansoni
Format: toxicity, cell-based
EXPERIMENTAL_CONDITIONS: read-out: Ratio CC50/EC50
METRIC_NAME: selectivity ratio

# COMPOUND, selectivity ratio
measured = [
    ("CCCCCCCC/C=C\\[C@@H](O)[C@H](O)CCCCCC(=O)O", "> 6.13"),
]

// selectivity ratio lookup, compound = O=C(C1CCCCC1)N1CC(=O)N2CCc3ccccc3C2C1 (configuration not stated) , result: > 333

----------
I'd appreciate it if you could supply selectivity ratio values for the items below.
PROTOCOL_NOTES: Selectivity index, ratio of CC50 for African green monkey Vero cells to EC50 for anti-schistosomal activity against male Schistosoma mansoni
Type: toxicity, cell-based
EXPERIMENTAL_CONDITIONS: read-out: Ratio CC50/EC50

# COMPOUND, selectivity ratio
data = [
    ("O=C(C1CCCCC1)N1CC(=O)N2CCc3ccccc3C2C1 (configuration not stated)", "> 250"),
]

Moving on to the next compound.
Memo: "CCCCCCCC/C=C\[C@@H](O)[C@H](O)CCCCCC(=O)O" , reported selectivity ratio: > 24.1
